biological target: Voltage-gated inwardly rectifying potassium channel KCNH2 (Homo sapiens, UniProt Q12809); assay: Inhibition of human ERG by manual patch clamp method
Sequence (Q12809 whole entry): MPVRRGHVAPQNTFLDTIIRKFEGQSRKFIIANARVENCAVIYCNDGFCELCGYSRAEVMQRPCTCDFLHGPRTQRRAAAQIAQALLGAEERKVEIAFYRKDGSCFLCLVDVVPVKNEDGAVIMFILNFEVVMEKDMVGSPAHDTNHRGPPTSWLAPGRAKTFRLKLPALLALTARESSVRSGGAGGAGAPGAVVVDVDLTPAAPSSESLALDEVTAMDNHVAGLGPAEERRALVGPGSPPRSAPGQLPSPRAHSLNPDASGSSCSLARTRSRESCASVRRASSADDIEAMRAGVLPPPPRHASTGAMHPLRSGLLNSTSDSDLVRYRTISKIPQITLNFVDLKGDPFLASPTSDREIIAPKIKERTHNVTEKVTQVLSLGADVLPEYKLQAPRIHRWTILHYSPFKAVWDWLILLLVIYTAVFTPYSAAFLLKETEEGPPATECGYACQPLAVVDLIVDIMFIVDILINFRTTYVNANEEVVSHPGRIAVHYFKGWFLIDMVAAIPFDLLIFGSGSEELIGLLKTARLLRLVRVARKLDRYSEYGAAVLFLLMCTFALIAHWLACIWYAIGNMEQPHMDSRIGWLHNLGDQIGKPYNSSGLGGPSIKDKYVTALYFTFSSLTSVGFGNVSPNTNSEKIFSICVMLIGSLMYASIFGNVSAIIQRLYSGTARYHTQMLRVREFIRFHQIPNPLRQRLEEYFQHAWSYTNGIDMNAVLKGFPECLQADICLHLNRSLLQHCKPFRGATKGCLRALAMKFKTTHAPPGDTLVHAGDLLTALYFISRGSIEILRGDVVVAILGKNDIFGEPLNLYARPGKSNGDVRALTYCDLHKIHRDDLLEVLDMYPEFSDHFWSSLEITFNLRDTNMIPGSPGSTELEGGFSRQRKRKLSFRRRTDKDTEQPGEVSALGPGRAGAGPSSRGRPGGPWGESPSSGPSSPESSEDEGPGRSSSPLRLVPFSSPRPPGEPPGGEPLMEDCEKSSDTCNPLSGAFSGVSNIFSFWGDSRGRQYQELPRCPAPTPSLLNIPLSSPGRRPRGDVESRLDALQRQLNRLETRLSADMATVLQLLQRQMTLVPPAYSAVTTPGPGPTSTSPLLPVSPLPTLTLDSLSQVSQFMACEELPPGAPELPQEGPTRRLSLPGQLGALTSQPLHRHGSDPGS
pIC50: −log10 of the molar value.
measuredAttribute: pIC50

Q: What value of measured pIC50 is listed for C=CC(=O)N1CC2(CC(n3nc(-c4ccc5c(cnn5C)c4)c(-c4c(Cl)c(C)cc5[nH]ncc45)c3C)C2)C1 [OPNURASIB] ?
A: < 5.33

* * *

experiment: Plasma protein binding in mouse incubated for 6 hrs by LC-MS/MS based rapid equlibrium dialysis method; format: ADME, cell-free; conditions: read-out: PPB (converted)
measuredAttribute: fraction unbound at 6 h

Q: What value of measured fraction unbound at 6 h is listed for C=CC(=O)N1CC2(CC(n3nc(-c4ccc5c(cnn5C)c4)c(-c4c(Cl)c(C)cc5[nH]ncc45)c3C)C2)C1 ?
A: 0.016
